# Test Target: alpha-thrombin (active site blocked with fluorescein-PPACK) (Homo sapiens, UniProt P00734;P00734 P00734:328-363,P00734:364-622)
# Experiment Description: fluorometric titration; duplicate measurement gave 99 nM; 20 mM Tris, 150 mM NaCl, pH 7.4

Binder | Readout Unit | Kd
GGTTGGTGTGGTTGG (ssDNA, 3'-biotin-streptavidin) [ODN 1f] | nM | 41

Origin of measurements: patent US6780850
